# Target or system: T1, KDM4B double tudor domain (KDM4B-DTD), HaloTag-tagged, wild type (human, UniProt O94953 917-1031)
# T1 chain: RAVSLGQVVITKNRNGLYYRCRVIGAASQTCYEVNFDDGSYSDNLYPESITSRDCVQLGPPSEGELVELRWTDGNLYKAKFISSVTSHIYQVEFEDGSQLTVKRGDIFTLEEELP
# Test method notes: FP
No end group written: not given here. Me2a = asymmetric dimethyl (on arginine)

>  <Binder>
RKQLATK(Me)AARKSAPAT (also: fluorescein label, end not given here) [H3K23me1 peptide (monomethylated H3K23), fluorescein-labelled]

>  <Kd, µM>
155

$$$$
>  <Binder>
RKQLATK(Me2)AARKSAPAT (also: fluorescein label, end not given here) [H3K23me2 peptide (dimethylated H3K23), fluorescein-labelled]

>  <Kd, µM>
35.3

$$$$
>  <Binder>
RKQLATK(Me3)AAR(Me2a)KSAPAT (also: fluorescein label, end not given here) [H3K23me3R26me2a peptide, fluorescein-labelled]

>  <Kd, µM>
53.1

$$$$
>  <Binder>
RKQLATK(Me3)AAAKSAPAT (also: fluorescein label, end not given here) [H3K23me3R26A peptide, fluorescein-labelled]

>  <Kd, µM>
180

$$$$

The reported numbers originate from paper PMC5114558.
